tgt: T1, Cyno ASGR-1 (cynomolgus monkey, UniProt P07306 1-291 (human entry))
T1 construct: Expressed on HEK 293 cells or as membrane prep on beads; cDNA from XP_005582755; also called cynomologus monkey ASGR-1
T1 chain: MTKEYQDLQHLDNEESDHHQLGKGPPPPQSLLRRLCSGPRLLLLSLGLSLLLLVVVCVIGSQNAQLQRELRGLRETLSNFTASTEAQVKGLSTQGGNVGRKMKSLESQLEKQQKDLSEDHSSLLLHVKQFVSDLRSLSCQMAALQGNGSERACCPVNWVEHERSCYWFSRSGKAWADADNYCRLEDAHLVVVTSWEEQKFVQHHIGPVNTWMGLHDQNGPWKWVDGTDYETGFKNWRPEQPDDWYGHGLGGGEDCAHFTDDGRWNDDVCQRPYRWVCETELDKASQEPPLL
method_summary: FACS on transfected HEK 293 cells or membrane preps on beads; Y = signal at least 2x irrelevant IgG
measure_name: binding result

binder="191G10 (antibody, V domains shown, Tested as hybridoma supernatant at normalized concentration) VH: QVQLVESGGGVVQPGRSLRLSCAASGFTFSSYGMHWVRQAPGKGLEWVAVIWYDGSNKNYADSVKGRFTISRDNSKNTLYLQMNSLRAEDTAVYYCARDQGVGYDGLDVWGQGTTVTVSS VL: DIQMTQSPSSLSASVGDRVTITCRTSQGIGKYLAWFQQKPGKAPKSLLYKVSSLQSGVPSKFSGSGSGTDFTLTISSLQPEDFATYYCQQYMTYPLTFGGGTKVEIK" measure_name="binding result" result_value=binds
binder="218G4 (antibody, V domains shown, Tested as hybridoma supernatant at normalized concentration) VH: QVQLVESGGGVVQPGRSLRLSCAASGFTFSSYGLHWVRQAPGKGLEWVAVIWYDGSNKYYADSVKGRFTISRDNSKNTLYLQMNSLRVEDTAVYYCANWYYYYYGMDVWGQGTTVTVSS VL: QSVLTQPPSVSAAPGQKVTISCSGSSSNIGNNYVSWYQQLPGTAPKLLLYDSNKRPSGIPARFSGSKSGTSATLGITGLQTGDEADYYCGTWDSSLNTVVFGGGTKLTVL" measure_name="binding result" result_value=binds
